target: PDL1, Q9NZQ7
Sequence (Q9NZQ7 whole entry): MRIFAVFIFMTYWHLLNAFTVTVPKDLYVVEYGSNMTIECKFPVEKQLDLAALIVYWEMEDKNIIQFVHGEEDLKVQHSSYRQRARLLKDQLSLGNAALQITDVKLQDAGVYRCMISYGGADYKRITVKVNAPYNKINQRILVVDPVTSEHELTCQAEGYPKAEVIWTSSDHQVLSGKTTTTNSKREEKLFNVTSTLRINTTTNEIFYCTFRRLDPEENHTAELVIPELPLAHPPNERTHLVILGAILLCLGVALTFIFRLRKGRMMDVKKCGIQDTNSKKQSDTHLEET

binder | binding in a display sort
d8r1_design_ppi_645_dldesign_0_cycle1_af2pred (protein) KIEKAKELLKKAKELLKEAKANPETAIEKAKAALADLSEAASLAAEAAKDPETKEEAEKLLAEAKKLGLEATQLLMKQSSLEEK | not found (inactive)
d8r1_design_ppi_700_dldesign_0_cycle0_af2pred (protein) SENKAKMEEHLAKAKEALLKGDPAAAPLAEAMAKAAKEEGPAALMAAAAAAYAAVVAADPSAAPLASQALAHAAKAAIYLGDS | not found (inactive)
d8r1_design_ppi_991_dldesign_0_cycle1_af2pred (protein) AEAARTAAIAKSIAGLAKLAEKAKDDKSVVRAAATAAAAAAAKDAALGKAAAERLKAAAEATPEEAIATLKAVAAEIAAAAAA | not found (inactive)
